In this section we review reported percent of cells in the CD123-Fc positive gate values for a set of binders.
- measured target: T1, CD123-Fc recombinant protein (human, UniProt P26951 19-305)
- T1 construct: construct not described; not shown: Fc part
- T1 sequence (looked up): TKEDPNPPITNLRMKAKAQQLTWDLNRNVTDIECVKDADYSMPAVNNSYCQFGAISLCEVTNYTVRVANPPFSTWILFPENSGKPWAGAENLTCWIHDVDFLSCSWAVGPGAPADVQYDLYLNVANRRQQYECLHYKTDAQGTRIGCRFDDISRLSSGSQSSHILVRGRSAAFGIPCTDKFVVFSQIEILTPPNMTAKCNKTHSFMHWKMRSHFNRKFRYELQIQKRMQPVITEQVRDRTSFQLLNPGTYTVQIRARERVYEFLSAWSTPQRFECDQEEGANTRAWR
- measurement protocol: flow cytometry of T cells electroporated with CAR mRNA, stained with CD123-Fc + PE-anti-hIgG-Fc; Mock 1.68
Your answer should be a plain number; it is taken to be in %.

>>> endpoint_result("anti-CD123 scFv-C2 (scFv, On mRNA-electroporated T cells as CAR) scFv: QSVVTQPPSVSAAPGQKVTISCSGSSSNIGNNYVSWYQQFPGTAPKLLIYDNNKRPSGIPDRFSGSKSGTSGTLGITGLQTGDEADYYCVTWDTSLSAGVFGGGTKLTVLGGGGSGGGGSGGGGSQITLKESGGGLVKPGGSLRLSCAASGFTFSNAWMSWVRQAPGKGLEWVGRIKSKTDGGTTDYAAPVKGRFTISRDDSKNTLYLQMNSLKTEDTAVYYCTTDPHGYYYGMDVWGQGTTVTVSS")
81.7

Here is the next item to consider.
Give its percent of cells in the CD123-Fc positive gate value. Item: anti-CD123 scFv-C16 (scFv, On mRNA-electroporated T cells as CAR) scFv: QSVVTQPPSASGTPGQRVTISCSGSSSNIEGNTVSWYQQFPGAAPKLLIYSNSYRASGVPDRFSGSKSGTSASLAISELQSEDEADYYCSAWDDSLNGPVFGGGTELTVLGGGGSGGGGSGGGGSQVQLQESGGGLVQPGGSLRLSCAASGFTFSSYSMNWVRQAPGKGLEWVSYISSSSSTIYYADSVKGRFTISRDNAKNSLYLQMNSLRAEDTAVYYCARDIYGDWDYYYYGMDVWGQGTTVTVSS
94.2

Provenance of the data: patent US20250381223A1
